# System: SK-OV-3
# assay overview: Antiproliferative activity against human SKOV3 cells after 48 hrs by SRB assay
# Type: functional
# test context: SK-OV-3, 48 h, read-out: GI50
measure name: GI50

What value of measured GI50 is listed for CCn1c2c3cc(OC)c(O)cc3ccc2c2c(=O)oc3cc(O)c(OC)cc3c21 ?
< 10 nM

// lookup GI50 for COc1cc2c(ccc3c4c(=O)oc5cc(OC(=O)[C@@H](N)C(C)C)c(OC)cc5c4n(C)c23)cc1OC(=O)[C@@H](N)C(C)C.O=C(O)C(F)(F)F.O=C(O)C(F)(F)F
20 nM

What value of GI50 has been recorded for this entry: COc1cc2c(ccc3c2[nH]c2c4cc(OC)c(O)cc4oc(=O)c32)cc1O
330 nM

Endpoint output: GI50 of COc1cc2c(ccc3c4c(=O)oc5cc(O)c(OC)cc5c4n(C)c23)cc1O . Value?
9.4 nM

Look at this molecule and give its reported GI50. COc1cc2c(cc1O)oc(=O)c1c2c(F)c2c3cc(OC)c(O)cc3ccn21
470 nM

GET /values?readout=GI50&item= COc1cc2c(cc1O)oc(=O)c1c2c(C)c2c3cc(OC)c(O)cc3ccn21
38 nM
